- Test system: MRSA 562
- experimentNotes: MIC, agar incorporation method
- Assay type: cell-based, Staphylococcus aureus
- conditionDescription: MRSA 562; agar incorporation; Table 1
measuredParameter: MIC (µg/mL)

INSERT INTO assay_data (structurestring, unitinfo, numericresult) VALUES
  ('CC(=O)NC[C@H]1CN(c2ccc(N3CCN(Cc4ccc(C5OCCCO5)o4)CC3)c(F)c2)C(=O)O1', 'µg/mL', 2),
  ('CC(=O)NC[C@H]1CN(c2ccc(N3C[C@@H]4[C@@H](CN(C)Cc5ccc([N+](=O)[O-])s5)[C@@H]4C3)c(F)c2)C(=O)O1', 'µg/mL', 8),
  ('CC(=O)NC[C@H]1CN(c2ccc(N3CCN(Cc4ccc(C=O)o4)CC3)c(F)c2)C(=O)O1', 'µg/mL', 1);
